Where do these numbers come from? They come from the supplement of paper PMC9732359.

- assay-details: protein stability index of a GFP-peptide fusion (yeast GPS) (PSI 1-4); higher = more stable; sorted into four equal gates, so the index is relative within each strain
- test-settings: san1∆
Output true for protein stability index not less than 3; output false otherwise.

- construct-sequence: "DTETFDTVNSALENDVA [YML103C/NUP188]"
  class-assignment: "true"
- construct-sequence: "SKISFIDEDKLYPSFKP [SSN2]"
  class-assignment: "false"
- construct-sequence: "DANLNDLPETGFFENIE [IRR1]"
  class-assignment: "true"
- construct-sequence: "YITARIMAKRPFDKKSN [FAS1]"
  class-assignment: "false"
- construct-sequence: "PELNVSLNLTDDVISNA [MCD1]"
  class-assignment: "true"
- construct-sequence: "KTRFKGSQFIVVSLKEG [SMC2]"
  class-assignment: "true"
- construct-sequence: "TTIFVKSTTPYVSALKR [POP7]"
  class-assignment: "false"
- construct-sequence: "HTEDESTKELKFSDIIQ [BRN1]"
  class-assignment: "true"
- construct-sequence: "ASNGRNKKGRGHVKPVR [RPS26A]"
  class-assignment: "true"
- construct-sequence: "SGKETASAPLCSPKLPV [DLS1]"
  class-assignment: "true"
- construct-sequence: "GDYDSHDISRYVRAKFL [PRP8]"
  class-assignment: "false"
- construct-sequence: "GTVSRVNRLLSVIPLKG [RRP4]"
  class-assignment: "false"
- construct-sequence: "TQHEEEEEQDTGESEES [IRR1]"
  class-assignment: "true"
- construct-sequence: "VKDLGQGLKLAKKHKLN [SMC3]"
  class-assignment: "false"
- construct-sequence: "ESLRGILHVRAQYCYKN [SRP72]"
  class-assignment: "false"
- construct-sequence: "NTQPSASGFGFGGSQPN [YGR119C/NUP57]"
  class-assignment: "false"
- construct-sequence: "IEIEDEKVSSVLSALEG [RPP2A]"
  class-assignment: "false"
- construct-sequence: "GNGLVDENKVEAFKSLY [YAR002W/NUP60]"
  class-assignment: "true"
- construct-sequence: "LKLSQAFGSSATDISGE [YJR042W/NUP85]"
  class-assignment: "false"
- construct-sequence: "LTVENKLQFETDRLSTT [SMC1]"
  class-assignment: "false"
- construct-sequence: "PSHYPHPYEYEIDHQEY [RRP6]"
  class-assignment: "false"
- construct-sequence: "ILEDTATMSVFLQRIDF [RRI2]"
  class-assignment: "false"
- construct-sequence: "YALFLKALRRKIYINLA [SSN2]"
  class-assignment: "false"
- construct-sequence: "LVTKILPLKKNEIIGDR [YCG1]"
  class-assignment: "false"
- construct-sequence: "PQLISDKFSPEDGLGPL [ARP7]"
  class-assignment: "false"
- construct-sequence: "MKTPSLTVYLEPGHAAD [RPO21]"
  class-assignment: "false"
- construct-sequence: "DGLIAPGVRVSGEDVII [RPB2]"
  class-assignment: "true"
- construct-sequence: "NSLIEEINERSETQTKD [YCG1]"
  class-assignment: "true"
- construct-sequence: "VMDTIQEQITLYDHWDK [SSN8]"
  class-assignment: "false"
- construct-sequence: "CIKKIMENNEPAMAMED [SRB8]"
  class-assignment: "true"
- construct-sequence: "DYSEIQRSRRKFSERRK [DSN1]"
  class-assignment: "true"
- construct-sequence: "PLVLLQQIPLLCYMAPM [POP3]"
  class-assignment: "false"
- construct-sequence: "MGKGTPSFGKRHNKSHT [RPL37A]"
  class-assignment: "true"
- construct-sequence: "DERTKEFEKKLQETLNK [YIL149C/MLP2]"
  class-assignment: "false"
- construct-sequence: "SKFYNMKQPYVFVKKHH [SSN2]"
  class-assignment: "false"
- construct-sequence: "EILILINDPTNKEYTLV [SIN4]"
  class-assignment: "false"
- construct-sequence: "LLTNFHGMDFTTDKLRS [RPS1A]"
  class-assignment: "false"
- construct-sequence: "KSDEGGSYLCTSSTPSP [YOR098C/NUP1]"
  class-assignment: "false"
- construct-sequence: "QWSIEIVLLDDEGKEIP [TAF14]"
  class-assignment: "false"
- construct-sequence: "NNLFRIIAELSFLKVDP [YJL039C/NUP192]"
  class-assignment: "true"
- construct-sequence: "IDDKTQNDELTMGMRAL [DIS3]"
  class-assignment: "false"
- construct-sequence: "LAKERQKLWLLECQLFP [SSN8]"
  class-assignment: "false"
- construct-sequence: "SKSVPTPSLPIAPPVAP [SNF5]"
  class-assignment: "true"
- construct-sequence: "MEDEILSLGMDFIKFDQ [BRN1]"
  class-assignment: "true"
- construct-sequence: "SSSTQNVFVILMDKCLP [DIS3]"
  class-assignment: "false"
- construct-sequence: "TKSHNTVQSWLCDLFVN [NUT1]"
  class-assignment: "false"
- construct-sequence: "LKKLEKFMELERKTLER [SWI3]"
  class-assignment: "true"
- construct-sequence: "SQLPITPMTRISELPPQ [YGL172W/NUP49]"
  class-assignment: "false"
- construct-sequence: "DSFKYEPLAPGNDNLIK [YLR335W/NUP2]"
  class-assignment: "false"
- construct-sequence: "KAKIIPGNGKHASENIS [SIR4]"
  class-assignment: "false"
- construct-sequence: "PDEAIEKVFNAYPAARE [FAS1]"
  class-assignment: "true"
- construct-sequence: "QCIVYPNCLFILKLLNG [SOH1]"
  class-assignment: "false"
